- assay.system: T1, human SLC34A2 (human, UniProt O95436 1-690)
- T1 construct: whole, on cells; also called human solute carrier 34 A2; NaPi2b
- T1 sequence (looked up): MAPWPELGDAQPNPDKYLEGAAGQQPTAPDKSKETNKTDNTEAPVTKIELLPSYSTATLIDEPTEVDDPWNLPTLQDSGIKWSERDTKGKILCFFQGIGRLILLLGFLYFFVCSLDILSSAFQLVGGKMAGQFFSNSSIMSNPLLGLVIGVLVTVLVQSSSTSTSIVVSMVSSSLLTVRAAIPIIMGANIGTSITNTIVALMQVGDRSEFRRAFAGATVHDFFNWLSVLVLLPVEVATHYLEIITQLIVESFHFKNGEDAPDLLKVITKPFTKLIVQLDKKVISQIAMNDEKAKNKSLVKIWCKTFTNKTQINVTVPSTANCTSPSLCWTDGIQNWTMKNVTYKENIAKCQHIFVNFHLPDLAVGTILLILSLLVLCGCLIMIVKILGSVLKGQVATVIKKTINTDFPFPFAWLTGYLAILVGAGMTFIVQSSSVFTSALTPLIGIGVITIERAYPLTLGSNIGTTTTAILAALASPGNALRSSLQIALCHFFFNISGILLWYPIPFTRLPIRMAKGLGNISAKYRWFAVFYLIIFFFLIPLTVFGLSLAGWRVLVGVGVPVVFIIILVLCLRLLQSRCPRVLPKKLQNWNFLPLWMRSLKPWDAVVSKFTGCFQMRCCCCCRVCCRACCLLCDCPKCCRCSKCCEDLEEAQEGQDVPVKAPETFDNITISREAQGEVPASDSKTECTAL
- test.method.notes: FACS, OVCAR3 cells
assay.readout: Top (MFI)

30H9B8F9.p1.z12 hIgG1 (antibody, V domains shown, humanized hIgG1) VH: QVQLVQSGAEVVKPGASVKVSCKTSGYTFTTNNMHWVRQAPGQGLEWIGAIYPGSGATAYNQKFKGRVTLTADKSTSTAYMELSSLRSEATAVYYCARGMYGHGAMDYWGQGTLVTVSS VL: DIVMTQSPSFLSASVGDRVTITCKASQDVGTAVAWYQQKPGKSPKLLIYWATTRHSGVPDRFTGSGSGTDFIFTISSVQPEDFATYFCQQYSSNPLTFGAGTKLEIK : 27600
30H9B8F9.p1.z15 hIgG1 (antibody, V domains shown, humanized hIgG1) VH: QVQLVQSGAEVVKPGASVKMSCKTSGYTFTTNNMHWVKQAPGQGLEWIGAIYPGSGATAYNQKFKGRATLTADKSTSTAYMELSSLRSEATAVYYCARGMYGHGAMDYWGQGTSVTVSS VL: DIQMTQSPSFLSASVGDRVTITCKASQDVGTAVAWYQQKPGKSPKLLIYWATTRHSGVPDRFSGSGSGTEFIFTISSVQPEDFATYFCQQYSSNPLTFGAGTKLEIK : 26500
30H9B8F9.p1.z13 hIgG1 (antibody, V domains shown, humanized hIgG1) VH: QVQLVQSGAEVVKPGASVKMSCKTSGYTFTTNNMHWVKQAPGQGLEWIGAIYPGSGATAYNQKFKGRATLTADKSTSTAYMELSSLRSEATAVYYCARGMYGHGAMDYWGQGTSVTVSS VL: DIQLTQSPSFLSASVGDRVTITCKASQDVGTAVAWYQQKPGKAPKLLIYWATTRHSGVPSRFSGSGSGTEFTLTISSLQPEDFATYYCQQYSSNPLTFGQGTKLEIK : 28400
30H9B8F9.p1.z3 hIgG1 (antibody, V domains shown, humanized hIgG1) VH: QVQLVQSGAEVKKPGASVKVSCKASGYTFTTNNMHWVRQAPGQGLEWMGAIYPGSGATAYNQKFKGRVTMTRDTSTSTVYMELSSLRSEDTAVYYCASGMYGHGAMDYWGQGTLVTVSS VL: DIQMTQSPSFLSASVGDRVTITCKASQDVGTAVAWYQQKPGKSPKLLIYWATTRHSGVPDRFSGSGSGTEFIFTISSVQPEDFATYFCQQYSSNPLTFGAGTKLEIK : 19600
30H9B8F9.p1.z7 hIgG1 (antibody, V domains shown, humanized hIgG1) VH: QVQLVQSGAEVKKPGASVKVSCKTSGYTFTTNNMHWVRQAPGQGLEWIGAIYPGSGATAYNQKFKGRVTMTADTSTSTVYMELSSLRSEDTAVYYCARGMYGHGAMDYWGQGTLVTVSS VL: DIQMTQSPSFLSASVGDRVTITCKASQDVGTAVAWYQQKPGKSPKLLIYWATTRHSGVPDRFSGSGSGTEFIFTISSVQPEDFATYFCQQYSSNPLTFGAGTKLEIK : 26700
30H9B8F9.p1.z16 hIgG1 (antibody, V domains shown, humanized hIgG1) VH: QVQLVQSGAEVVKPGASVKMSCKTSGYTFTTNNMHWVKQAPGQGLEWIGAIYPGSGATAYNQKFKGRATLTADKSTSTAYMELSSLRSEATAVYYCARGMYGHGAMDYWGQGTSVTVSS VL: DIVMTQSPSFLSASVGDRVTITCKASQDVGTAVAWYQQKPGKSPKLLIYWATTRHSGVPDRFTGSGSGTDFIFTISSVQPEDFATYFCQQYSSNPLTFGAGTKLEIK : 26500
30H9B8F9.p1.z2 hIgG1 (antibody, V domains shown, humanized hIgG1) VH: QVQLVQSGAEVKKPGASVKVSCKASGYTFTTNNMHWVRQAPGQGLEWMGAIYPGSGATAYNQKFKGRVTMTRDTSTSTVYMELSSLRSEDTAVYYCASGMYGHGAMDYWGQGTLVTVSS VL: DIQLTQSPSFLSASVGDRVTITCKASQDVGTAVAWYQQKPGKSPKLLIYWATTRHSGVPDRFSGSGSGTEFTFTISSLQPEDFATYFCQQYSSNPLTFGQGTKLEIK : 25200
62G10E4G8.p3.z16 hIgG1 (antibody, V domains shown, humanized hIgG1) VH: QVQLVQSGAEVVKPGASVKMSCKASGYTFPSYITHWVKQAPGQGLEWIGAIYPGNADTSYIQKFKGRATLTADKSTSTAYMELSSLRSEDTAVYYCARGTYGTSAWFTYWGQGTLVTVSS VL: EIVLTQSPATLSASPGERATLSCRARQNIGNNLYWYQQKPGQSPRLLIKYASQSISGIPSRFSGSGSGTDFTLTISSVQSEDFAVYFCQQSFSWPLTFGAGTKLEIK : 31900
xi62G10E4G8 hIgG1 (antibody, V domains shown, chimeric, hIgG1) VH: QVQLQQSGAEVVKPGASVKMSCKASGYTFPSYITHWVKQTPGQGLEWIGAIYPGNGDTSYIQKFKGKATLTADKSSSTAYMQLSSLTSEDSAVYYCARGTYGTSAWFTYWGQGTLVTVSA VL: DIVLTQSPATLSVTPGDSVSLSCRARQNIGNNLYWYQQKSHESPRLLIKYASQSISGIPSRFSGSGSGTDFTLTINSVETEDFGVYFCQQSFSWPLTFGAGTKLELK : 27600
62G10E4G8.p3.z9 hIgG1 (antibody, V domains shown, humanized hIgG1) VH: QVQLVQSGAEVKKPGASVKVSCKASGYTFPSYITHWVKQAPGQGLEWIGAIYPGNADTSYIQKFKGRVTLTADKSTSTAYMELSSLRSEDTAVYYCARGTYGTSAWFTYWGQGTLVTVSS VL: EIVMTQSPATLSVSPGERATLSCRARQNIGNNLYWYQQKPGQAPRLLIYYASQSISGIPARFSGSGSGTEFTLTISSLQSEDFAVYYCQQSFSWPLTFGQGTKLEIK : 31300

The measured values listed here are drawn from patent US20240301052A1.
